Tested on: A549 NSCLC
Assay: NCI tumour cell line growth inhibition, 48 h
REPORTED ENDPOINT: TGI (µM)
Write the value in µM as a bare number.

COMPOUND STRUCTURE	UNIT INFO	TGI
NCCCNc1nc2ccc(Cl)cc2c2c(=O)c3cc(F)ccc3sc12	µM	3.89

Asked: Sample "CCCOc1ccc(/C=N/Nc2cc(C)nc3ccc(Cl)cc23)cc1" — what was its TGI?
Given back: 3.35

###

Test system: COLO 205 colon
Assay: NCI tumour cell line growth inhibition, 48 h
Recorded log10(TGI) for the following compounds
Each number you see is log10 of TGI, and the unit inside the log is µM.

COMPOUND	OBSERVED MEASUREMENT
O=C1/C(=C\c2ccccc2)CN(C(=O)c2ccccc2)C/C1=C\c1ccccc1	0.85
O=C(N/C=C/C=C/Sc1ccccc1)OCc1ccccc1	1.50
Cc1cccc(N=C/C=C(\Cl)c2ccc3ccccc3c2)c1	1.66

Asked: Sample COc1cc(/C=C/C(=O)c2ccc(F)cc2)ccc1OCCCCCOc1cc2c(cc1OC)C(=O)N1CCCC1C=N2 (centres undefined) — what was its log10(TGI)?
Given back: -1.37

Asked: Then this compound: "CCC(C)(C)[C@H](NC(=O)[C@H]1CCCCN1C)C(=O)N(C)[C@H](C[C@@H](OC(C)=O)c1nc(C(=O)N[C@@H](Cc2ccccc2)C[C@H](C)C(=O)O)cs1)C(C)C"
Given back: -2.56

Asked: Then this compound: COC(=O)c1ccc(C)cc1C1CN=NC12Cc1cc(C)ccc1C2=O (centres undefined)
Given back: 1.28

Asked: Then this compound: CN(C)CC1CCCCCCCCCCCCC(CN(C)C)C1=O (centres undefined)
Given back: 1.44

Asked: Then this compound: "NCCCNc1nc2ccc(Cl)cc2c2c(=O)c3cc(F)ccc3sc12"
Given back: 0.95
